Source of measurements: paper PMC3339042

- Target entity: ubiquitin E1 (UBA1) (Homo sapiens, UniProt P22314)
- Sequence (P22314 2-1058): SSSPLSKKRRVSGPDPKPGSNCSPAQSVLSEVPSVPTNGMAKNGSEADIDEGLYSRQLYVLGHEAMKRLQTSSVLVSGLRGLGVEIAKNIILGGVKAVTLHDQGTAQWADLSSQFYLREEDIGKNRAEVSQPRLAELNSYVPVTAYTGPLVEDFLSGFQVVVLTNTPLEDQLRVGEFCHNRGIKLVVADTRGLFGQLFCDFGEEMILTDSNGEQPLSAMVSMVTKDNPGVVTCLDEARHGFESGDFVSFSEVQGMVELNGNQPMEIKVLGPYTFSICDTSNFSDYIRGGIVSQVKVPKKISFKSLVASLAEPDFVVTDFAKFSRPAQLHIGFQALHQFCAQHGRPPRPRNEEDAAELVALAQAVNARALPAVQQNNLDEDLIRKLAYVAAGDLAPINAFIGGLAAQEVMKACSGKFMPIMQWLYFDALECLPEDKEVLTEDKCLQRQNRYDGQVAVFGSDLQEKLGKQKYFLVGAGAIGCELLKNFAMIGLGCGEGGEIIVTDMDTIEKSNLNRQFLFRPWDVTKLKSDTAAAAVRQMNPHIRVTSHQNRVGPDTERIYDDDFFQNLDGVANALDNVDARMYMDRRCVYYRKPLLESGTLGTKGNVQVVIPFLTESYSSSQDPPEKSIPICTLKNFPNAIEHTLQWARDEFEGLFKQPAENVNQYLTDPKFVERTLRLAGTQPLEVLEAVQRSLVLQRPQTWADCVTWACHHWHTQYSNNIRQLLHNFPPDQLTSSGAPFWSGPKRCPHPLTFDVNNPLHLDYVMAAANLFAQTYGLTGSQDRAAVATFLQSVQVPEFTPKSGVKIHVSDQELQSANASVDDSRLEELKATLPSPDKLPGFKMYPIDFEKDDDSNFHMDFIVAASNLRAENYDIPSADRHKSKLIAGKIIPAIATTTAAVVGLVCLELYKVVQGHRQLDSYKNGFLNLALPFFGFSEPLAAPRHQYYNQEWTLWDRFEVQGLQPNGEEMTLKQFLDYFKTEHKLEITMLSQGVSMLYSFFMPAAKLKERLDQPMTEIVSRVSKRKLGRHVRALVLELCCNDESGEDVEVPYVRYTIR
- Procedure summary: […]-AMP:[α-32P]-ATP exchange TLC assay
- Format: biochemical
Experimental readout: pIC50
Give bare numbers, as −log10 of the molar value.

*Q* Consider the compound shown here: CCOC(=O)c1ccc(N2NC(=O)C(=Cc3ccc([N+](=O)[O-])o3)C2=O)cc1 [PYR-41] What is its recorded pIC50?
*A* 5.19
